# System: Saccharomyces cerevisiae
# Test Protocol: DNA damaging activity against wild-type Saccharomyces cerevisiae assessed as drug level required to produce 12 mm zone of inhibition assessed per 100 uL after 48 hrs
# Assay type: functional
Activity for assorted compounds

compound="CCCC/C=C/C=C/CCC/C=C/C=C/[C@@H]1C[C@@H](O)[C@@H](N)CN1 [PSEUDODISTOMIN F]" target_or_system="Saccharomyces cerevisiae" recorded_measurement="20 µg"
compound="CCCC/C=C/C=C/CCCCC[C@@H]1C[C@H](O)[C@H](N)CN1 [PSEUDODISTOMIN E]" target_or_system="Saccharomyces cerevisiae" recorded_measurement="12 µg"
compound="CCCC/C=C/C=C/CCCCC[C@@H]1C[C@@H](O)[C@@H](N)CN1 [PSEUDODISTOMIN B]" target_or_system="Saccharomyces cerevisiae" recorded_measurement="13 µg"
compound="CCCC/C=C/C=C/CCC/C=C/C=C/[C@@H]1C[C@H](O)[C@H](N)CN1 [PSEUDODISTOMIN C]" target_or_system="Saccharomyces cerevisiae" recorded_measurement="38 µg"

Consider the record given below.
Given item COc1cc(NS(C)(=O)=O)ccc1Nc1c2ccccc2nc2ccccc12 [AMSACRINE] , the value recorded as its Activity is >20 µg

---

Activity for assorted molecules
# System: Saccharomyces cerevisiae
# Test Protocol: DNA damaging activity against wild-type Saccharomyces cerevisiae assessed as drug level required to produce 12 mm zone of inhibition assessed per 100 uL after 48 hrs
# Assay type: functional
Give the number; µg is assumed, so skip it.

molecule="CO[C@H]1C[C@@H]2CC[C@@H](C)[C@@](O)(O2)C(=O)C(=O)N2CCCC[C@H]2C(=O)O[C@H]([C@H](C)C[C@@H]2CC[C@@H](O)[C@H](OC)C2)CC(=O)[C@H](C)/C=C(\\C)[C@@H](O)[C@@H](OC)C(=O)[C@H](C)C[C@H](C)/C=C/C=C/C=C/1C [SIROLIMUS]" reported_endpoint=Activity recorded_measurement=0.00043

Consider the record given below.
Given item CCCC/C=C/C=C/CCCCC[C@@H]1C[C@H](O)[C@@H](N)CN1 [PSEUDODISTOMIN D] , the value recorded as its Activity is 11
